// reported IC50 per item
# measurement target: BuChE; butyrylcholinesterase (EC 3.1.1.8) from equine serum (Equus caballus, UniProt P81908)
# Construct: gene BCHE; commercial enzyme from equine serum, Sigma-Aldrich, EC 3.1.1.8
# Sequence (P81908 whole entry): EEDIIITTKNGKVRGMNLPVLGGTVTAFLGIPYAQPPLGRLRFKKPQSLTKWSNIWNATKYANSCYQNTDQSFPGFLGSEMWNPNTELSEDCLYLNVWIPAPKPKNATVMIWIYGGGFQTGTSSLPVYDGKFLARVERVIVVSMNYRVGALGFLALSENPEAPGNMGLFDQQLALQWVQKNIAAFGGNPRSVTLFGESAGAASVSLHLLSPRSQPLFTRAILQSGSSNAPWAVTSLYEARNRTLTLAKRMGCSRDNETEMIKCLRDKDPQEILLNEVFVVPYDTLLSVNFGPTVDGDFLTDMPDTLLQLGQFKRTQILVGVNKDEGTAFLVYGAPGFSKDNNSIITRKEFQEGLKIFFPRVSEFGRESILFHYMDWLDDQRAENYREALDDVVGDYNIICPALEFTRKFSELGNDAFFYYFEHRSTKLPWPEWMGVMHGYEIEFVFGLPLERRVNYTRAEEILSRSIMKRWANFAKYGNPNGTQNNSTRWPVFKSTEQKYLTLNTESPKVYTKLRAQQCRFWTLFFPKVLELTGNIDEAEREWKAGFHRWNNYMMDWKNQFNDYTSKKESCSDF
# test description: Ellman assay, absorbance at […] nm
# Type: biochemical
# test parameters: read-out: BuChE / IC50 (μM) ± SD *
assay readout: IC50 (µM)

> print(dat)
                         input.smiles  unit.descriptor  assay.result
1  CCOc1cccc2cc(-c3nnc(N)s3)c(=O)oc12               µM         0.295
2   COc1cccc2cc(-c3nnc(N)s3)c(=O)oc12               µM         0.198
3      Nc1nnc(-c2cc3ccc(O)cc3oc2=O)s1               µM          0.38
